Item-by-item account of INHIBITION
System: Plasmodium berghei
Experiment: Screen against P. berghei liver stage (PbLuc), transformed with Luciferase, at 10uM
Assay type: functional, HepG2
Conditions: tested at 10 uM
The whole screen tested about 69,000 compounds, of which about 8,600 (12%) showed an effect of 50% or more. The list comes from a sample in which strong results are over-represented; it also holds close analogues and randomly drawn compounds.
Give just the number in %; leave the unit off.

Past entries and their recorded results:
1. CCN1CCOCC2(CCCN(C(=O)c3ccccc3F)C2)C1 (stereo not drawn) ... -60.3
2. COc1cc(S(=O)(=O)N2CCc3ccc(F)cc32)cc(C(=O)O)c1OC ... 42.9

Return INHIBITION measured with Plasmodium berghei given this molecule: COc1ncc(-c2cc(NCCN(C)C)nc3[nH]ccc23)c(OC)n1
49

----------
Test system: Plasmodium berghei
Assay: Screen against P. berghei liver stage (PbLuc), transformed with Luciferase, at 10uM
Assay type: functional, HepG2
Conditions: tested at 10 uM
In all, about 69,000 compounds went through this assay and about 8,600 (12%) showed an effect of 50% or more. The entries come from a sample that favours strong results as a whole.
readout.type: INHIBITION (%)
Give just the number in %; leave the unit off.

Past entries and their recorded results:
1) O=C([C@@H]1CCO[C@@H]2CCN(CC3CCOCC3)C[C@H]21)N1CCCC1 ... 30.3
2) Cc1nn(C)c(N(C)C)c1CNCc1ccccc1CO ... 15.3
3) Cc1ccc(CN2CCC3(CC2)C(=O)NCCN3CC2CC2)o1 ... 89.3
4) O=C([C@@H]1CCO[C@@H]2CCN(CC3CC3)C[C@H]21)N1CCCCO1 ... 61.5

# input compound: COCC(=O)Nc1ccc(-c2noc([C@@H]3CCCN3C(C)C)n2)cn1 ; wanted: its INHIBITION
35.8

# input compound: O=C([C@@H]1CCO[C@@H]2CCN(CCc3ccccc3)C[C@@H]21)N1CCCC1 ; wanted: its INHIBITION
-101

----------
Test system: Plasmodium berghei
Experiment: Screen against P. berghei liver stage (PbLuc), transformed with Luciferase, at 10uM
Type: functional, HepG2
Details: tested at 10 uM
Screen size: about 69,000 compounds; about 8,600 (12%) showed an effect of 50% or more. For the sample, strong results were picked, then their nearest neighbours and some compounds at random.
Item-by-item account of INHIBITION
Give just the number in %; leave the unit off.

# input compound: CCC(=O)N1CCN(C(=O)Nc2ccc(Cl)cc2)[C@H]2CS(=O)(=O)C[C@H]21 ; wanted: its INHIBITION
61

# input compound: CC1(C)CN(C(=O)c2ncc(F)cc2F)CCC1(O)CN1CCOCC1 (configuration not stated) ; wanted: its INHIBITION
76.3

# input compound: COCCCN1CC2(CCN(Cc3cc(C(C)C)no3)CC2)CC1=O ; wanted: its INHIBITION
41.2

# input compound: CCSc1ncc(CN2CCC(O)(CN3CCOCC3)C(C)(C)C2)cn1 (configuration not stated) ; wanted: its INHIBITION
81

# input compound: CN1CC(=O)N(c2ccccc2)CC12CCN(Cc1nccs1)C2 (configuration not stated) ; wanted: its INHIBITION
-35.9

# input compound: CCC(=O)N1CCN(C(=O)CCn2cc(Cl)cn2)[C@H]2CS(=O)(=O)C[C@H]21 ; wanted: its INHIBITION
35.8

# input compound: CCc1ncc(C(=O)N2CCC(O)(CN3CCOCC3)C(C)(C)C2)cn1 (configuration not stated) ; wanted: its INHIBITION
10.9

# input compound: CC(C)(O)CN1CCN(C(=O)c2cccc(CC#N)c2)CC1 ; wanted: its INHIBITION
-9.76

# input compound: COC[C@]1(O)CCN(Cc2cnc(N3CCOCC3)nc2)CC1(C)C ; wanted: its INHIBITION
32.3
